Values from ChEMBL document CHEMBL4622905

test system: Paracoccidioides brasiliensis; assay: Antifungal activity against Paracoccidioides brasiliensis Pb18; assay type: functional

molecule	MIC
O=C(N/N=C/c1cc(Cl)ccc1O)c1n[nH]c(=O)c2nc(-c3ccccc3)ncc12	64 µg/mL
COc1ccc(/C=N/NC(=O)c2n[nH]c(=O)c3nc(-c4ccccc4)ncc23)cc1OC	64 µg/mL
O=C(N/N=C/c1ccc(F)cc1)c1n[nH]c(=O)c2nc(-c3ccccc3)ncc12	32 µg/mL
O=C(N/N=C/c1ccccc1)c1n[nH]c(=O)c2nc(-c3ccccc3)ncc12	0.125 µg/mL
COc1ccc(/C=N/NC(=O)c2n[nH]c(=O)c3nc(-c4ccccc4)ncc23)cc1	> 256 µg/mL
CCC(C)n1ncn(-c2ccc(N3CCN(c4ccc(OCC5COC(Cn6cncn6)(c6ccc(Cl)cc6Cl)O5)cc4)CC3)cc2)c1=O (stereo not given)	1 µg/mL
NNC(=O)c1n[nH]c(=O)c2nc(-c3ccccc3)ncc12	> 256 µg/mL
O=C(N/N=C/c1ccccc1O)c1n[nH]c(=O)c2nc(-c3ccccc3)ncc12	128 µg/mL
O=C(N/N=C/c1cc([N+](=O)[O-])ccc1O)c1n[nH]c(=O)c2nc(-c3ccccc3)ncc12	128 µg/mL
COc1cc(/C=N/NC(=O)c2n[nH]c(=O)c3nc(-c4ccccc4)ncc23)ccc1O	> 256 µg/mL

====

experiment: Selectivity index, ratio for cytotoxicity for monkey Vero cells to MIC for Paracoccidioides brasiliensis Pb18; format: toxicity, cell-based
Measured selectivity ratio, listed per entry for reference.

compound	selectivity ratio
O=C(N/N=C/c1ccccc1O)c1n[nH]c(=O)c2nc(-c3ccccc3)ncc12	3
O=C(N/N=C/c1cc(Cl)ccc1O)c1n[nH]c(=O)c2nc(-c3ccccc3)ncc12	4
O=C(N/N=C/c1ccc(F)cc1)c1n[nH]c(=O)c2nc(-c3ccccc3)ncc12	5
O=C(N/N=C/c1cc([N+](=O)[O-])ccc1O)c1n[nH]c(=O)c2nc(-c3ccccc3)ncc12	3
COc1cc(/C=N/NC(=O)c2n[nH]c(=O)c3nc(-c4ccccc4)ncc23)cc(OC)c1O	4

====

assay: Selectivity index, ratio for cytotoxicity for human HeLa cells to MIC for Paracoccidioides brasiliensis Pb18; type: toxicity, cell-based

compound	selectivity ratio
O=C(N/N=C/c1ccccc1)c1n[nH]c(=O)c2nc(-c3ccccc3)ncc12	13
COc1cc(/C=N/NC(=O)c2n[nH]c(=O)c3nc(-c4ccccc4)ncc23)cc(OC)c1O	4
O=C(N/N=C/c1cc(Cl)ccc1O)c1n[nH]c(=O)c2nc(-c3ccccc3)ncc12	4
O=C(N/N=C/c1cc([N+](=O)[O-])ccc1O)c1n[nH]c(=O)c2nc(-c3ccccc3)ncc12	3
O=C(N/N=C/c1ccc(F)cc1)c1n[nH]c(=O)c2nc(-c3ccccc3)ncc12	5

====

Measured selectivity ratio, listed per entry for reference.
experiment: Selectivity index, ratio for cytotoxicity for human HeLa cells to MIC for Paracoccidioides brasiliensis Pb18; format: toxicity, cell-based

compound	selectivity ratio
COc1ccc(/C=N/NC(=O)c2n[nH]c(=O)c3nc(-c4ccccc4)ncc23)cc1OC	4
O=C(N/N=C/c1ccccc1O)c1n[nH]c(=O)c2nc(-c3ccccc3)ncc12	3
O=C(N/N=C/c1ccc(O)cc1)c1n[nH]c(=O)c2nc(-c3ccccc3)ncc12	5

====

Measured selectivity ratio, listed per entry for reference.
experiment: Selectivity index, ratio for cytotoxicity for monkey Vero cells to MIC for Paracoccidioides brasiliensis Pb18; type: toxicity, cell-based

compound	selectivity ratio
COc1ccc(/C=N/NC(=O)c2n[nH]c(=O)c3nc(-c4ccccc4)ncc23)cc1OC	4
O=C(N/N=C/c1ccccc1)c1n[nH]c(=O)c2nc(-c3ccccc3)ncc12	13
O=C(N/N=C/c1ccc(O)cc1)c1n[nH]c(=O)c2nc(-c3ccccc3)ncc12	5

====

test system: Paracoccidioides brasiliensis; assay: Antifungal activity against Paracoccidioides brasiliensis Pb18; assay type: functional
measuredAttribute: MIC

compound	reportedValue
O=C(N/N=C/c1ccccn1)c1n[nH]c(=O)c2nc(-c3ccccc3)ncc12	> 256 µg/mL
O=C(N/N=C/c1cccs1)c1n[nH]c(=O)c2nc(-c3ccccc3)ncc12	> 256 µg/mL
C[C@@H]1[C@H](O)[C@@H](C)/C=C/C=C/C=C/C=C/C=C/C=C/C=C/[C@H](O[C@@H]2O[C@H](C)[C@@H](O)[C@H](N)[C@@H]2O)C[C@@H]2O[C@](O)(C[C@@H](O)C[C@@H](O)[C@H](O)CC[C@@H](O)C[C@@H](O)CC(=O)O[C@H]1C)C[C@H](O)[C@H]2C(=O)O	1 µg/mL
COc1cc(/C=N/NC(=O)c2n[nH]c(=O)c3nc(-c4ccccc4)ncc23)cc(OC)c1O	64 µg/mL
O=C(N/N=C/c1ccc(-c2cccs2)s1)c1n[nH]c(=O)c2nc(-c3ccccc3)ncc12	> 256 µg/mL
O=C(N/N=C/c1ccc([N+](=O)[O-])cc1)c1n[nH]c(=O)c2nc(-c3ccccc3)ncc12	> 256 µg/mL
CN(C)c1ccc(/C=N/NC(=O)c2n[nH]c(=O)c3nc(-c4ccccc4)ncc23)cc1	> 256 µg/mL
O=C(N/N=C/c1ccc(O)cc1)c1n[nH]c(=O)c2nc(-c3ccccc3)ncc12	32 µg/mL
O=C(N/N=C/c1cccc([N+](=O)[O-])c1)c1n[nH]c(=O)c2nc(-c3ccccc3)ncc12	> 256 µg/mL

====

Measured Activity, listed per entry for reference.
test system: HeLa; assay: Cytotoxicity against human HeLa cells at 512 ug/ml; assay type: cell-based
measuredAttribute: Activity

compound	reportedValue
O=C(N/N=C/c1cc(Cl)ccc1O)c1n[nH]c(=O)c2nc(-c3ccccc3)ncc12	> 80%
O=C(N/N=C/c1cc([N+](=O)[O-])ccc1O)c1n[nH]c(=O)c2nc(-c3ccccc3)ncc12	> 80%
O=C(N/N=C/c1ccc(O)cc1)c1n[nH]c(=O)c2nc(-c3ccccc3)ncc12	> 80%
O=C(N/N=C/c1ccccc1O)c1n[nH]c(=O)c2nc(-c3ccccc3)ncc12	> 80%
COc1cc(/C=N/NC(=O)c2n[nH]c(=O)c3nc(-c4ccccc4)ncc23)cc(OC)c1O	> 80%
O=C(N/N=C/c1ccc(F)cc1)c1n[nH]c(=O)c2nc(-c3ccccc3)ncc12	> 80%
O=C(N/N=C/c1ccccc1)c1n[nH]c(=O)c2nc(-c3ccccc3)ncc12	> 80%
COc1ccc(/C=N/NC(=O)c2n[nH]c(=O)c3nc(-c4ccccc4)ncc23)cc1OC	> 80%
